System: DU-145
measurementDescription: CCK-8 tumor cell proliferation, DU-145
Type: cell-based, Human
runConditions: DU-145, 96 h, read-out: IC50 for inhibiting the proliferation of tumor cells, DU-145
pIC50: −log10 of the molar value.
# reported pIC50; entries follow

Below: 5 compounds and their reported pIC50.
1) N#Cc1ccc(OC2CCC(NC(=O)c3ccc(N4CCC(CN5CC6CC(C5)N6c5ccc6c(c5)C(=O)N(C5CCC(=O)NC5=O)C6=O)CC4)nn3)CC2)cc1Cl (stereo not shown) ... 6.30 to 7.00
2) N#Cc1ccc(OC2CCC(NC(=O)c3ccc(N4C5CC4CN(CC4CCN(c6cc7c(cc6F)C(=O)N(C6CCC(=O)NC6=O)C7=O)CC4)C5)nn3)CC2)cc1Cl (stereo not shown) ... 5.30 to 6.00
3) N#Cc1ccc(OC2CCC(NC(=O)c3ccc(N4C5CCC4CN(CC4CCN(c6cc7c(cc6F)C(=O)N(C6CCC(=O)NC6=O)C7=O)CC4)C5)nn3)CC2)cc1Cl (stereo not shown) ... 6.00 to 6.30
4) N#Cc1ccc(OC2CCC(NC(=O)c3ccc(N4CCC(CN5C6CCC5CN(c5ccc7c(c5)C(=O)N(C5CCC(=O)NC5=O)C7=O)C6)CC4)nn3)CC2)cc1Cl (stereo not shown) ... 5.30 to 6.00
5) N#Cc1ccc(OC2CCC(NC(=O)c3ccc(N4CCC(CN5C6CC5CN(c5cc7c(cc5F)C(=O)N(C5CCC(=O)NC5=O)C7=O)C6)CC4)nn3)CC2)cc1Cl (stereo not shown) ... 5.30 to 6.00

Challenge: Can you look up pIC50 on DU-145 for N#Cc1ccc(OC2CCC(NC(=O)c3ccc(N4CCC(CN5CC6CCC(C5)N6c5ccc6c(c5)C(=O)N(C5CCC(=O)NC5=O)C6=O)CC4)nn3)CC2)cc1Cl (stereo not shown) ?
Response given: 7.00 to 7.30

Challenge: Please state recorded pIC50 (tested on DU-145) of N#Cc1ccc(OC2CCC(NC(=O)c3ccc(N4CCC(CN5CCN(c6cc7c(cc6F)C(=O)N(C6CCC(=O)NC6=O)C7=O)CC5)CC4)nn3)CC2)cc1Cl (stereo not shown)
Response given: 6.00 to 6.30

Challenge: What value of pIC50 on DU-145 does N#Cc1ccc(OC2CCC(NC(=O)c3ccc(N4CCC(CN5C6CC5CN(c5ccc7c(c5)C(=O)N(C5CCC(=O)NC5=O)C7=O)C6)CC4)nn3)CC2)cc1Cl (stereo not shown) have?
Response given: 5.30 to 6.00

Challenge: Query the reported pIC50 for DU-145; item: N#Cc1ccc(OC2CCC(NC(=O)c3ccc(N4CC5CCC(C4)N5CC4CCN(c5cc6c(cc5F)C(=O)N(C5CCC(=O)NC5=O)C6=O)CC4)nn3)CC2)cc1Cl (stereo not shown)
Response given: 5.30 to 6.00

Challenge: Please tell me: pIC50 of N#Cc1ccc(OC2CCC(NC(=O)c3ccc(N4CCC(CN5CC6CCC(C5)N6c5cc6c(cc5F)C(=O)N(C5CCC(=O)NC5=O)C6=O)CC4)nn3)CC2)cc1Cl (stereo not shown) , system DU-145?
Response given: 7.00 to 7.30
